B1: NECAB1 (parent)
chain: FSPNSPQFNVSGPGLLEEDNQWMT

Variants of: B1
Assay: protein stability index of a GFP-peptide fusion (GPS, HEK-293T) (PSI 1-6); higher = more stable;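 note: lentivirally expressed fusions sorted by FACS into six bins by GFP to DsRed ratio, PSI derived from sequencing read proportions per bin multiplied by bin number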
Settings: c terminus: a fixed tail appended
Values of protein stability index greater than or equal to 3 map to true (1); values below map to false (0).

Is the recorded value of protein stability index equal to or greater than 3 for this variant? G12P false (0)

Is the recorded value of protein stability index equal to or greater than 3 for this variant? P6D false (0)

Is the recorded value of protein stability index equal to or greater than 3 for this variant? P6F false (0)

Is the recorded value of protein stability index equal to or greater than 3 for this variant? G14T false (0)

Is the recorded value of protein stability index equal to or greater than 3 for this variant? N4D true (1)

Is the recorded value of protein stability index equal to or greater than 3 for this variant? L16P true (1)

Is the recorded value of protein stability index equal to or greater than 3 for this variant? T24A false (0)

Is the recorded value of protein stability index equal to or greater than 3 for this variant? L15D true (1)

Is the recorded value of protein stability index equal to or greater than 3 for this variant? S11E true (1)

Is the recorded value of protein stability index equal to or greater than 3 for this variant? W22D true (1)

Is the recorded value of protein stability index equal to or greater than 3 for this variant? M23S true (1)

Is the recorded value of protein stability index equal to or greater than 3 for this variant? Q21H false (0)

Is the recorded value of protein stability index equal to or greater than 3 for this variant? P3W false (0)

Is the recorded value of protein stability index equal to or greater than 3 for this variant? N9L false (0)

Is the recorded value of protein stability index equal to or greater than 3 for this variant? F8G true (1)

Is the recorded value of protein stability index equal to or greater than 3 for this variant? F1S true (1)

Is the recorded value of protein stability index equal to or greater than 3 for this variant? P13K false (0)

Is the recorded value of protein stability index equal to or greater than 3 for this variant? D19W false (0)

Hey, just so you know, these numbers are from the supplement of paper PMC10567573.
